Biological target: 4'-phosphopantetheinyl transferase ffp (Bacillus subtilis) (UniProt Q9F4F7)
Test: qHTS Assay for Inhibitors of Bacillus subtilis Sfp phosphopantetheinyl transferase (PPTase);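 note: the enzyme is Sfp with the accession as filed and its product quenches rhodamine fluorescence; 0% = enzyme reaction without inhibitor and -100% = no enzyme wells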
Settings: Biochemical Sfp PPTase activity
Among all 310,000 compounds or so, about 11,000 (3.5%) were called active. Not shown: some 4% with an inconclusive outcome. The sample holds actives, similar compounds and a random draw of the others, so the mix is not that of the screen.
ASSAY ENDPOINT: largest response in the series, negative = inhibition (%)
Expressed in %, but write only the number.

CS(=O)(=O)n1nc(-c2ccco2)nc1N : 23.7
Cn1cccc1-c1nc2ccccc2n1C : 1.06

largest response in the series, negative = inhibition for `CNC(=O)[C@]1(C(F)(F)F)C[C@H](CCc2ccccc2)CCCO1` ?
-10.7

largest response in the series, negative = inhibition for `O=C(NCc1ccc(F)cc1)C1CCN(C(=O)Nc2ccc(F)cc2)CC1` ?
9.57

largest response in the series, negative = inhibition for `COc1ccc(NC(=O)c2ccco2)cc1NC(=O)c1ccc(C#N)cc1F` ?
6.39

largest response in the series, negative = inhibition for `COc1ccc(Nc2nc(-c3cccnc3)nc3ccccc23)cn1` ?
5.49

largest response in the series, negative = inhibition for `O=S(=O)(Nc1ccccc1)c1ccc(NS(=O)(=O)c2cccs2)cc1` ?
16.9

largest response in the series, negative = inhibition for `COc1ccccc1Oc1nc(-c2cccnc2)nc2ccccc12` ?
-13.5

----------
Documented largest response in the series, negative = inhibition across a set of compounds
Target: 4'-phosphopantetheinyl transferase ffp (Bacillus subtilis) (UniProt Q9F4F7)
Assay: qHTS Assay for Inhibitors of Bacillus subtilis Sfp phosphopantetheinyl transferase (PPTase);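 note: the enzyme is Sfp with the accession as filed and its product quenches rhodamine fluorescence; 0% = enzyme reaction without inhibitor and -100% = no enzyme wells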
Conditions: Biochemical Sfp PPTase activity
Hit rate of the full screen: of about 310,000 compounds, about 11,000 (3.5%) were called active. About 4% were inconclusive and are not listed. This is one part of a sample in which actives are shown more often than they occur.
Expressed in %, but write only the number.

O=C(NC1CCCC1)C(=O)c1c[nH]c2ccccc12 : 20.8
CCOC(=O)c1[nH]c2c(c1-c1ccccc1)C(=O)CC(c1ccc(Cl)cc1)C2 (stereo not given) : 5.24
CC(C)C(=O)Nc1nnc(SCC(=O)N2C(C)CCCC2C)s1 (stereo not given) : -17.7
CCOC(=O)N1CC=C2C(C#N)=C(N)C(C#N)(C#N)[C@H](c3cccs3)[C@H]2C1 : -5.72
CN(C)CCN(Cc1ccccc1)S(=O)(=O)c1csc(C(N)=O)c1 : 4.81
C=CCn1c(C23CC4CC(CC(C4)C2)C3)n[nH]c1=S : 14.6
Cc1[nH][nH]c(=O)c1C(c1ccc2c(c1)OCO2)c1c(C)[nH][nH]c1=O : 5.9
CCOC(=O)C1=C(C)NC(=O)N(C(C)=O)C1c1ccc(Cl)cc1 (stereo not given) : 19
COc1ccc(CNC(=O)CN(C(=O)c2csnn2)c2cnc3ccccc3c2)cc1 : 15.4

largest response in the series, negative = inhibition for `CCOc1ccc(C(c2c(C)[nH][nH]c2=O)c2c(C)[nH][nH]c2=O)cc1OCC` ?
2.34

----------
Documented largest response in the series, negative = inhibition across a set of compounds
Biological target: 4'-phosphopantetheinyl transferase ffp (Bacillus subtilis) (UniProt Q9F4F7)
Assay: qHTS Assay for Inhibitors of Bacillus subtilis Sfp phosphopantetheinyl transferase (PPTase);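 note: the enzyme is Sfp with the accession as filed and its product quenches rhodamine fluorescence; 0% = enzyme reaction without inhibitor and -100% = no enzyme wells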
Conditions: Biochemical Sfp PPTase activity
Description: Assay Submitter: Michael Burkart, University of California, San Diego Screening Center PI: Austin, C.P. Screening Center: NIH Chemical Genomics Center [NCGC] […] In search of small molecule Sfp-PPTase inhibitors, a fluorescence quenching assay was developed for detection of Bacillus subtilis Sfp-PPTase enzymatic activity in a miniaturized high-throughput format. […]
The whole screen tested about 310,000 compounds, of which about 11,000 (3.5%) were called active. About 4% were inconclusive and are not listed. The sample holds actives, similar compounds and a random draw of the others, so the mix is not that of the screen.
Expressed in %, but write only the number.

A selection of reference data follows.
O=C(CNC(=O)c1ccccc1)Oc1ccc([N+](=O)[O-])cc1 : 7.55
COc1ccc(Cl)cc1S(=O)(=O)N1CCN(CC(=O)C(C)(C)C)CC1 : 7.95
COc1cccc(-n2c(=S)sc3c(=O)n(-c4ccccc4C)c(SCC(=O)O)nc32)c1 : 4.84

// moving on: another record for largest response in the series, negative = inhibition
largest response in the series, negative = inhibition for Cc1ccc2c(c1)C(c1ccccc1)N(C(=O)c1ccc(F)cc1)CC(=O)N2 (centres undefined) ?
-5.97
